Test system: Hepa: human hepatoma
TEST DESCRIPTION: In vitro anticancer assay (cytotoxicity), human solid tumor cells
SETTINGS: Homo sapiens, HepA, read-out: IC50 Values of Cytotoxicities, Hepa
# IC50 per entry
API: value field is a number in µg/mL; no unit string.

| MOLECULE | MEASUREMENT TARGET | IC50 [µg/mL] |
| --- | --- | --- |
| CCCCCC#C/C=C\C#Cc1ccccc1C#N [Compound 4, 2-(3(Z)-Undecen-1,5-diynyl)benzonitrile] | Hepa: human hepatoma | 7.28 |

Input line: Record request: IC50 value, item "N#Cc1ccccc1C#C/C=C\C#Cc1ccccc1"
Output line: 1.09
